Assay: Pharmacokinetics in pregnant patients given intramuscular hydroxyprogesterone caproate
Details: female, human, plasma, im, 250 mg
observed-property: half-life

Challenge: Consider the compound shown here: CCCCCC(=O)O[C@]1(C(C)=O)CC[C@H]2[C@@H]3CCC4=CC(=O)CC[C@]4(C)[C@H]3CC[C@@]21C [HPC, 17α-hydroxyprogesterone caproate] What is its recorded half-life?
Response given: 16.4 days

---

Assay: Pharmacokinetics in pregnant patients given intramuscular hydroxyprogesterone caproate
Conditions: female, human, plasma, im, 250 mg, AUC(1-t), Group 2 (24-28 weeks gestation, N = 8), 250 mg intramuscular, mean (standard deviation)
observed-property: AUC (µg·h/mL)
Output spec: scalar in µg·h/mL, unitless text.

Challenge: # lookup: AUC of CCCCCC(=O)O[C@]1(C(C)=O)CC[C@H]2[C@@H]3CCC4=CC(=O)CC[C@]4(C)[C@H]3CC[C@@]21C [HPC, 17α-hydroxyprogesterone caproate]
Response given: 1.27

---

Assay: Pharmacokinetics in pregnant patients given intramuscular hydroxyprogesterone caproate
Details: female, human, plasma, im, 250 mg, AUC(1-t), Group 3 (32-36 weeks gestation, N = 11), 250 mg intramuscular, mean (standard deviation)
observed-property: AUC (ng·h/mL)
The figure you give is taken to be in ng·h/mL; do not add the unit.

Challenge: Param item = CCCCCC(=O)O[C@]1(C(C)=O)CC[C@H]2[C@@H]3CCC4=CC(=O)CC[C@]4(C)[C@H]3CC[C@@]21C [HPC, 17α-hydroxyprogesterone caproate] ; retrieve measured AUC.
Response given: 1270

---

Test: Pharmacokinetics in pregnant patients given intramuscular hydroxyprogesterone caproate
Settings: female, human, plasma, im, 250 mg, Tmax, Group 2 (24-28 weeks gestation, N = 8), 250 mg intramuscular
observed-property: Tmax (h)
Give the value, in units of h, as a plain number.

Challenge: Fill blank: measured Tmax of the molecule CCCCCC(=O)O[C@]1(C(C)=O)CC[C@H]2[C@@H]3CCC4=CC(=O)CC[C@]4(C)[C@H]3CC[C@@]21C [HPC, 17α-hydroxyprogesterone caproate] is ____.
Response given: 24

---

Experiment: Pharmacokinetics in pregnant patients given intramuscular hydroxyprogesterone caproate
Details: female, human, plasma, im, 250 mg, Cmax, Group 3 (32-36 weeks gestation, N = 11), 250 mg intramuscular, mean (standard deviation)
observed-property: Cmax (ng/mL)
Please reply with the bare figure in ng/mL and do not write the unit itself.

Challenge: Find the recorded Cmax belonging to CCCCCC(=O)O[C@]1(C(C)=O)CC[C@H]2[C@@H]3CCC4=CC(=O)CC[C@]4(C)[C@H]3CC[C@@]21C [HPC, 17α-hydroxyprogesterone caproate] and report it.
Response given: 12.3
